# Particulars: in acetonitrile, 288.15 K
Observable: solubility (mole fraction)
Hey, just send me the number, nothing else.

Returns the measured solubility (mole fraction) for the input molecule. Input: O=C1C2C3C=CC(C3)C2C(=O)N1O (stereo unspecified)
0.0223

* * *

# Particulars: in 2-butoxyethanol, 323.15 K
Observable: solubility (mole fraction)

Returns the measured solubility (mole fraction) for the input compound. Input: O=C1C2C3C=CC(C3)C2C(=O)N1O (stereo unspecified)
0.11

* * *

# Particulars: in 1,4-dioxane, 318.15 K
Observable: solubility (mole fraction)

Returns the measured solubility (mole fraction) for the input compound. Input: O=C1C2C3C=CC(C3)C2C(=O)N1O (stereo unspecified)
0.138

* * *

# Particulars: in acetone, 293.15 K
Observable: solubility (mole fraction)
Hey, just send me the number, nothing else.

Returns the measured solubility (mole fraction) for the input compound. Input: O=C1C2C3C=CC(C3)C2C(=O)N1O (stereo unspecified)
0.0447

* * *

# Particulars: in n-propanol, 278.15 K
Observable: solubility (mole fraction)
Hey, just send me the number, nothing else.

Returns the measured solubility (mole fraction) for the input compound. Input: O=C1C2C3C=CC(C3)C2C(=O)N1O (stereo unspecified)
0.0192

* * *

# Particulars: in 2-ethoxyethanol, 303.15 K
Observable: solubility (mole fraction)
Hey, just send me the number, nothing else.

Returns the measured solubility (mole fraction) for the input molecule. Input: O=C1C2C3C=CC(C3)C2C(=O)N1O (stereo unspecified)
0.112

* * *

# Particulars: in acetonitrile, 298.15 K
Observable: solubility (mole fraction)
Hey, just send me the number, nothing else.

Returns the measured solubility (mole fraction) for the input compound. Input: O=C1C2C3C=CC(C3)C2C(=O)N1O (stereo unspecified)
0.0298

* * *

# Particulars: in ethanol, 298.15 K
Observable: solubility (mole fraction)

Returns the measured solubility (mole fraction) for the input compound. Input: O=C1C2C3C=CC(C3)C2C(=O)N1O (stereo unspecified)
0.0592

* * *

# Particulars: in isopropanol, 318.15 K
Observable: solubility (mole fraction)
Hey, just send me the number, nothing else.

Returns the measured solubility (mole fraction) for the input compound. Input: O=C1C2C3C=CC(C3)C2C(=O)N1O (stereo unspecified)
0.0774

* * *

# Particulars: in ethyl acetate, 303.15 K
Observable: solubility (mole fraction)
Hey, just send me the number, nothing else.

Returns the measured solubility (mole fraction) for the input molecule. Input: O=C1C2C3C=CC(C3)C2C(=O)N1O (stereo unspecified)
0.0192

* * *

# Particulars: in isopropanol, 308.15 K
Observable: solubility (mole fraction)
Hey, just send me the number, nothing else.

Returns the measured solubility (mole fraction) for the input molecule. Input: O=C1C2C3C=CC(C3)C2C(=O)N1O (stereo unspecified)
0.0577

* * *

# Particulars: in 2-ethoxyethanol, 293.15 K
Observable: solubility (mole fraction)
Hey, just send me the number, nothing else.

Returns the measured solubility (mole fraction) for the input compound. Input: O=C1C2C3C=CC(C3)C2C(=O)N1O (stereo unspecified)
0.093

* * *

# Particulars: in ethanol, 308.15 K
Observable: solubility (mole fraction)
Hey, just send me the number, nothing else.

Returns the measured solubility (mole fraction) for the input compound. Input: O=C1C2C3C=CC(C3)C2C(=O)N1O (stereo unspecified)
0.082

* * *

# Particulars: in ethyl acetate, 323.15 K
Observable: solubility (mole fraction)
Hey, just send me the number, nothing else.

Returns the measured solubility (mole fraction) for the input compound. Input: O=C1C2C3C=CC(C3)C2C(=O)N1O (stereo unspecified)
0.0373
